Tested on: U-251
Assay: Anticancer activity against human U-251 cells assessed as cell growth inhibition at 10 uM incubated for 48 hrs by SRB assay relative to control
Assay type: functional
Conditions: read-out: GI
Label MET for high-side inhibition of growth at 10 µM (at or above 40%) and NOT MET for low-side inhibition of growth at 10 µM (below it).

NS(=O)(=O)c1ccc(Nc2nc(N/N=C/c3c[nH]c4ccccc34)nc(Nc3ccccc3)n2)cc1: MET
CN(C)c1ccc(/C=N/Nc2nc(Nc3ccccc3)nc(Nc3ccc(S(N)(=O)=O)cc3)n2)cc1: NOT MET
Cc1ccc(/C=N/Nc2nc(Nc3ccccc3)nc(Nc3ccc(S(N)(=O)=O)cc3)n2)cc1: NOT MET
NS(=O)(=O)c1ccc(Nc2nc(N/N=C/c3ccc4c(c3)OCO4)nc(Nc3ccccc3)n2)cc1: MET
NS(=O)(=O)c1ccc(Nc2nc(N/N=C/c3ccc(Cl)cc3)nc(Nc3ccccc3)n2)cc1: MET

Next compound, please.
Check if inhibition of growth at 10 µM >= 40% (inclusive). Item: NS(=O)(=O)c1ccc(Nc2nc(N/N=C/c3ccc(C(F)(F)F)cc3)nc(Nc3ccccc3)n2)cc1
MET
